MEASUREMENT_TARGET: T1, Sulfotyr fibrinogen γ peptide (not fully specified; Y8 and Y12 sulfated (SO3); C-terminal biotin)
T1 construct: also called Fibrinogen gamma peptide; human sulfotyrosinylated fibrinogen peptide
T1 peptide: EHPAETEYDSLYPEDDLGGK
PROCEDURE_DETAILS: ELISA, 50 nM mAb
REPORTED_PROPERTY: binding normalized to PSGL-1

These solved cases illustrate the format of a correct answer.
INSERT INTO results (binder, endpoint_result) VALUES
  ('03B04 (antibody, IgG4, V domains shown) VH: EVKLLESGGGLVKPGGSLRLSCAASGFAFSRYTMNWVRQAPGKGLEWVSSISSSSSYIYYADSVKGRFTISRDNAKNSLVLQMNSLRPEDTAVYYCARGGIAANDYWGQGTLVTVSS VL: EIVMTQTPLSLPVTLGQPASISCRSSRNLVHYDGNTYLSWFHQRPGQPPRRLIYKISNRESGVPDRFSGSGSGTDFTLKISRVEAEDVGVYYCLQHTHWPWTFGPGTKVEIK', 0.57),
  ('06C04 (antibody, IgG4, V domains shown) VH: EVQLVESGGGLVQPGGSLRLSCAASGFTFSDHYMDWVRQAPGKGLEWVGRSRNKVKSYTTAYAASVEGRITISRDDSKNSLYLEMNSLKTEDTAVYYCVRVRWGGAFDIWGQGTMVTVSS VL: QPVLTQPPSASGSPGQSVTISCTGTSSDVGGYNYVSWYQQHPGKAPKLMIYEVSKRPSGVPDRFSGSKSGNTASLTVSGLQAEDEADYYCSSYAGSNNLRVFGGGTKLTVL', 1.15);

Now examine the next entry.
Look at this binder and give its reported binding normalized to PSGL-1. 01A04 (antibody, IgG4, V domains shown) VH: EVQLVQSGAEVKKPGASVKVSCKASGYTFTSYYIHWVRQAPGQGLEWMGIIRPSGGSTSYAQKFQGRVTMTRDTSTSTVYMELSSLRSEDTAMYYCARVGVGSFDYWGQGTLVTVSS VL: DIQMTQSPSTLSASVGDRVTITCRASQSVSNWLAWYQQKPGKAPKLLIYKASSLESGVPSRFSGSGSGTEFTLTISSLQPDDFATYYCQWFRTFGPGTKVDIK 0.16

Source listed as patent US20220396632A1.
